# System: H9C2 cells
# PROCEDURE_TEXT: Fluorescence activated cell sorting of H9C2 cells after 30 min incubation with 10 uM peptide (median Cy5.5)
# Assay type: cell-based, rat
# CONDITION_PARAMETERS: average of corrected median Cy5.5, H9C2 cells, FIG. 1C
Where no end group is shown, it is not given here.
Average Correction strictly less than 8000 = 1. Otherwise 0.

* APWHLSSQYSAT (also: Cy5.5 conjugate, site not given here) [R11A, alanine variant of CTP, Cy5.5 conjugated] | 0
* APWHLSSQYSRA (also: Cy5.5 conjugate, site not given here) [T12A, alanine variant of CTP, Cy5.5 conjugated] | 0
* APWHASSQYSRT (also: Cy5.5 conjugate, site not given here) [L5A, alanine variant of CTP, Cy5.5 conjugated] | 1
* APWHLSSQYART (also: Cy5.5 conjugate, site not given here) [S10A, alanine variant of CTP, Cy5.5 conjugated] | 1
* SQYSRT (Description of Artificial Sequence: Cardiac Targeting Peptide (CTP-B)) [linear six C-terminal amino acid cardiac-specific targeting peptide] | 1
* APWHLSAQYSRT (also: Cy5.5 conjugate, site not given here) [S7A, alanine variant of CTP, Cy5.5 conjugated] | 0
* APWHLSSQYSRT (also: Cy5.5 label, site not given here) [CTP, 12-amino acid cardiac-specific targeting peptide, tested conjugated to Cy5.5] | 1
* APWALSSQYSRT (also: Cy5.5 conjugate, site not given here) [H4A, alanine variant of CTP, Cy5.5 conjugated] | 1
* APWHLSSQASRT (also: Cy5.5 conjugate, site not given here) [Y9A, alanine variant of CTP, Cy5.5 conjugated] | 1
* APWHLASQYSRT (also: Cy5.5 conjugate, site not given here) [S6A, alanine variant of CTP, Cy5.5 conjugated] | 0

----------
# Test system: H9C2 cells
# PROCEDURE_TEXT: Fluorescence activated cell sorting of H9C2 cells after 30 min incubation with 10 uM peptide (median Cy5.5)
# Type: cell-based, rat
# CONDITION_PARAMETERS: average of corrected median Cy5.5, H9C2 cells, FIG. 1C
Where no end group is shown, it is not given here.
PROPERTY_NAME: Average Correction

- APAHLSSQYSRT (also: Cy5.5 conjugate, site not given here) [W3A, alanine variant of CTP, Cy5.5 conjugated]: 5332.5
- AAWHLSSQYSRT (also: Cy5.5 conjugate, site not given here) [P2A, alanine variant of CTP, Cy5.5 conjugated]: 9535.0
- APWHLSSAYSRT (also: Cy5.5 conjugate, site not given here) [Q8A, alanine variant of CTP, Cy5.5 conjugated]: 9371.3

----------
# Test system: H9C2 cells
# PROCEDURE_TEXT: Alanine scan: percentage of Cy5.5 positive H9C2 cells by FACS
# Assay type: cell-based, rat
# CONDITION_PARAMETERS: percentage of Cy5.5 positive H9C2 cells normalized to non-mutated peptide (SEQ ID NO: 1); Cy5.5-conjugated peptides, 30 minutes at 37° C.
# Experimental: Variants of SEQ ID NO: 1 in which every amino acid was systematically mutated to alanine were synthesized in the University of Pittsburgh Peptide Synthesis Facility. Each variant was conjugated to the Cyanine5.5 fluorescent dye (Cy5.5). The rat cardiomyocyte cell line H9C2 (ATCC, catalogue #: CRL-1446) was incubated for 30 minutes at 37° C. with Dimethyl sulfoxide (DMSO) as a control, or the alanine peptide variants. […]
Where no end group is shown, it is not given here.
PROPERTY_NAME: % transduction of H9C2 Cells (%)

- APWHLASQYSRT (also: Cy5.5 conjugate, site not given here) [S6A, alanine variant of CTP, Cy5.5 conjugated]: 107.21
- APWHASSQYSRT (also: Cy5.5 conjugate, site not given here) [L5A, alanine variant of CTP, Cy5.5 conjugated]: 87.81
- APWHLSSQASRT (also: Cy5.5 conjugate, site not given here) [Y9A, alanine variant of CTP, Cy5.5 conjugated]: 107
- APAHLSSQYSRT (also: Cy5.5 conjugate, site not given here) [W3A, alanine variant of CTP, Cy5.5 conjugated]: 75.81
- APWHLSSQYSRA (also: Cy5.5 conjugate, site not given here) [T12A, alanine variant of CTP, Cy5.5 conjugated]: 90.33
- APWHLSSAYSRT (also: Cy5.5 conjugate, site not given here) [Q8A, alanine variant of CTP, Cy5.5 conjugated]: 67.35
